- Assayed System: Human VPS34 (Homo sapiens (Human), UniProt Q8NEB9)
- Sequence (Q8NEB9 whole entry): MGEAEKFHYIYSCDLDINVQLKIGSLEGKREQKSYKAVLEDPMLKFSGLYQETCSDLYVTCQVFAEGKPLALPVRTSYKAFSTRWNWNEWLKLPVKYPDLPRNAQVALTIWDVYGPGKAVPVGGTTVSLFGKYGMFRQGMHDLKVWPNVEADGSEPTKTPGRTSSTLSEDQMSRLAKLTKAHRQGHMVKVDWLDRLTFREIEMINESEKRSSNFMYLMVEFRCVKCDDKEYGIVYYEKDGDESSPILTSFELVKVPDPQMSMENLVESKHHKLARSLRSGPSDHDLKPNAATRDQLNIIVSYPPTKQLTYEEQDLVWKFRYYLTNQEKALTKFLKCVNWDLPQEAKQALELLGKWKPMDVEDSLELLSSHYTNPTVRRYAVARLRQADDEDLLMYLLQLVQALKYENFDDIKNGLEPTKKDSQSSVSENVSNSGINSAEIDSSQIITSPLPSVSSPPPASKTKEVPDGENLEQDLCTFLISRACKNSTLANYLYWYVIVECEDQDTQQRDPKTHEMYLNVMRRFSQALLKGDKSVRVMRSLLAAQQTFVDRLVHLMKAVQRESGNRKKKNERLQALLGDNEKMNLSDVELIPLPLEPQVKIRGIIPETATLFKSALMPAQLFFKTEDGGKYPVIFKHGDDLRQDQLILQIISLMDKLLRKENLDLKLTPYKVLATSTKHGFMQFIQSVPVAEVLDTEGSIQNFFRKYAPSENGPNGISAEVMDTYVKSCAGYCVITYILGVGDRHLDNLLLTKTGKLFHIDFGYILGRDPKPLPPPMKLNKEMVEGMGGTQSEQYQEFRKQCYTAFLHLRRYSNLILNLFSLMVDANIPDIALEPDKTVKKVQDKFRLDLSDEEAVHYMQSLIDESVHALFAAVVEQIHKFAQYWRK
- Procedure Text: Human VPS34 enzyme assay (Adapta TR-FRET)
- Assay type: biochemical
- Test Settings: compound concentration 1.11 μM; read-out: Percent Inhibition
Reported Endpoint: inhibition at 1.11 µM (%)

| Chem Smiles | Measure Unit | inhibition at 1.11 µM |
| --- | --- | --- |
| Cc1ncc(-c2ccnc(NC(=O)OCc3ccn(C)n3)c2)cc1NS(=O)(=O)c1ccc(F)cc1F | % | 96 |
| Cc1c(-c2ccnc(Nc3ccncn3)c2)cnc(Cl)c1NS(=O)(=O)c1ccc(F)cc1F | % | 94 |
| Cc1ncc(-c2ccnc(Nc3ccnc(C(F)(F)F)n3)c2)cc1NS(=O)(=O)c1ccc(F)cc1F | % | 91 |
| Cc1ncc(-c2ccnc(NC(=O)C3CC3)c2)cc1NS(=O)(=O)c1ccc(Cl)cc1F | % | 93 |
| CC(=O)Nc1cc(-c2cncc(/C=C/C(=O)c3ccc(F)cc3)c2)ccn1 | % | 98 |

A = CC(=O)Nc1cc(-c2cc(NS(=O)(=O)c3ccc(F)cc3F)c3ccnn3c2)ccn1
B = COc1ncc(-c2ccnc(NC(C)=O)c2)cc1NC(=O)c1ccc(F)cc1F
## Input From the recorded data, which exceeds the other in inhibition at 1.11 µM: A or B ? Lab log: write the label of the selected item as the result.
## Output A
(A: 94%, B: 22%)

====

- Assayed System: Human VPS34 (Homo sapiens (Human), UniProt Q8NEB9)
- Procedure Text: Human VPS34 enzyme assay (Adapta TR-FRET)
- Type: biochemical
- Test Settings: compound concentration 1.11 μM; read-out: Percent Inhibition
Reported Endpoint: inhibition at 1.11 µM

Worked examples, 3 compounds total:
| Chem Smiles | Result Value |
| --- | --- |
| Cc1ncc(-c2ccnc(NC(=O)OCC3(C)COC3)c2)cc1NS(=O)(=O)c1ccc(F)cc1F | > 99% |
| Cc1nccc(Nc2cc(-c3cnc(Cl)c(C(=O)N4CCC4)c3C)ccn2)n1 | 95% |
| COc1ncc(-c2ccnc(NC(C)=O)c2)cc1C(=O)N(C)c1ccc(F)cc1F | > 99% |

Please look at the following compound next.
Input CC(=O)Nc1cc(-c2cnc3[nH]cc(S(=O)(=O)N(C)C)c3c2)ccn1 . Output inhibition at 1.11 µM: > 99%

====

inhibition at 1.11 µM values, listed per item
- Assayed System: UniProt Q8NEB9
- Procedure Text: Human VPS34 enzyme assay (Adapta TR-FRET)
- Type: biochemical
- Test Settings: compound concentration 1.11 μM; read-out: Percent Inhibition

Field: example entries. Status: answers known.
| Chem Smiles | Result Value |
| --- | --- |
| CC(=O)Nc1cc(-c2cnc3ccn(S(C)(=O)=O)c3c2)ccn1 | > 99% |
| Cc1nc(Nc2cc(-c3cnc(C)c(NS(=O)(=O)N(C)C)c3)ccn2)ccc1C#N | > 99% |
| CC(=O)Nc1cc(-c2cnc(N)c(S(=O)(=O)NC(C)C)c2)ccn1 | > 99% |

Switching to the query record.
Form field inhibition at 1.11 µM, entry CC(=O)Nc1cc(-c2cnc(Cl)c(S(=O)(=O)NC(C)(C)C)c2C)ccn1 : 96%

====

- Assayed System: Human VPS34 (Homo sapiens (Human))
- Procedure Text: Human VPS34 enzyme assay (Adapta TR-FRET)
- Type: biochemical
- Test Settings: compound concentration 1.11 μM; read-out: Percent Inhibition
We begin with a simple list: items and their reported inhibition at 1.11 µM.

Summary for this compound, CC(=O)Nc1cc(-c2cncc(NC(=O)c3ccc(F)cc3F)c2)ccn1 [Compound I-419] : inhibition at 1.11 µM is 56%

Lookup result for CC(=O)Nc1cc(-c2cnc(N)c(C(=O)Nc3cccc(F)c3F)c2)ccn1 [Compound I-179] ; measured inhibition at 1.11 µM: > 99%

Query CC(=O)Nc1cc(-c2cnc(N)c(S(=O)(=O)Cc3ccc(Cl)cc3)c2)ccn1 [Compound I-99] yields inhibition at 1.11 µM of > 99%
